system: RPMI-8226; experiment: NCI tumour cell line growth inhibition, 48 h
The source made the active and inactive calls. Cut-off read from the data, not from the text of the source: active = GI50 up to about 1.1 µM and inactive = higher.
Hi! Could you answer with just one of these? label 1 for active, label 0 for inactive

Inquiry: Given `CCOC(=O)C(C)(c1cn(C)c2ccccc12)c1cn(C)c2ccccc12` , state the outcome it received in this test.
Reply text: label 0

Inquiry: How did this test come out for `O=C1CCC(=O)N1n1c(Cc2ccc(Cl)cc2)n[nH]c1=O` ?
Reply text: label 0

* * *

tested on: SN12C; assay: NCI tumour cell line growth inhibition, 48 h
Activity calls are given as the source filed them. Rule as the data show it: active = GI50 up to about 1.1 µM and inactive = higher.
Hi! Could you answer with just one of these? Yes = active, No = inactive

Answered cases to consult:
Inquiry: Query: recorded result category for `Cc1ccc(-c2n[nH]c(=O)n2N2C(=O)C=CC2=O)cc1` in this test
Reply text: No

Inquiry: What classification did `Clc1cccc(/N=C/C=C/Nc2cccc(Cl)c2)c1` end up with in this test?
Reply text: No

Inquiry: Could you please tell me the result logged for Cc1c(N2C(=O)CS(=O)(=O)C2c2cccc(Oc3ccccc3)c2)c(=O)n(-c2ccccc2)n1C (stereo unspecified) in this assay?
Reply text: No

Inquiry: Status in this test for `Nc1c(Cl)ncnc1NCC1(CO)CCC1` ?
Reply text: No

Others:
Inquiry: Called result for N/N=C1\C(=O)N(C2CCCCCC2)C(=O)C1C(=O)NC1CCCCCC1 (stereo unspecified)
Reply text: No

Inquiry: Please indicate how the test categorized `COc1ccc(OC)c(/C=N/N=C(\N)NO)c1` .
Reply text: No

Inquiry: Could you kindly confirm the outcome this assay logged for CCn1cc(C(c2ccc(Cl)cc2)n2ccnc2)c2cc(Br)ccc21 (stereo unspecified) ?
Reply text: No

Inquiry: Kindly provide the recorded test outcome for the following molecule: O=C(O)CCC1NC(/C(=C/c2ccccc2O)NC(=O)c2ccccc2)OC1=O (stereo unspecified)
Reply text: No

* * *

test system: NCI-H522; assay: NCI tumour cell line growth inhibition, 48 h
The source made the active and inactive calls. No stated cut-off is given here; in the data, active = GI50 up to about 1.1 µM and inactive = higher.
Write down the outcome that applies. Available outcomes: yes for active, no for inactive

Inquiry: Look up the recorded call for `Nc1ccc2nc3c(nc2c1)C(=O)c1ccccc1-3` in this test.
Reply text: no

Inquiry: How was `Cc1ccc(C(=O)N(Cc2ccccc2)Cc2ccccc2)cc1/N=N/N(C)C` classified in this test?
Reply text: no

Inquiry: Please let me know the test result on file for `c1ccc2c(c1)CCN(C1=NCCO1)C2` .
Reply text: no

Inquiry: Given `CC1=[N+]([O-])c2ccccc2C(=O)C1=O` , state the outcome it received in this test.
Reply text: no

Inquiry: Hello, I am checking results. What call was entered for `CCOC(=O)C1=C(Nc2ccc(Cl)c(Cl)c2)OC/C1=N\NS(=O)(=O)c1ccc(C)cc1` ?
Reply text: no

Inquiry: Could you kindly confirm the outcome this assay logged for `COc1ccc2[nH]c(Cl)c(/C=C3/C(=O)Nc4cc(C)c(OC)cc43)c2c1` ?
Reply text: no

* * *

tested on: Hs-578T; experiment: NCI tumour cell line growth inhibition, 48 h
Calls of active or inactive are those of the source. No stated cut-off is given here; in the data, active = GI50 up to about 1.1 µM and inactive = higher.
Answer each item with its documented GI50.

# count of solved cases: 4
Field GI50 (system: Hs-578T) for entry `S=c1nc(Nc2ccc(Br)cc2)c2c3c(sc2[nH]1)CN(N1CCc2c(sc4[nH]c(=S)nc(Nc5ccc(Br)cc5)c24)C1)CC3` = > 50 µM (inactive)

Here COC(=O)c1cc(C)ccc1CC(Cc1cccc(C)c1)C(=O)OC (stereo not given) was tested on Hs-578T, and its GI50 came to > 100 µM (inactive)

# value of GI50, Hs-578T, item `O=C1c2cccc3cccc(c23)C(=O)N1CCCNOCCONCCCN1C(=O)c2cccc3cccc(c23)C1=O` = 92.3 µM (inactive)

# GI50 measured on Hs-578T for item Cc1ccccc1-n1c(=O)c2ncn(C3CCCO3)c2n(-c2ccccc2C)c1=S (stereo not given) = > 100 µM (inactive)

Please examine the following record next.
The reported Hs-578T GI50 of CCn1cc(C(c2ccc(Cl)cc2)n2ccnc2)c2cc(Br)ccc21 (stereo not given) is 18.7 µM (inactive)
